The reported numbers originate from patent US8980906B2.

target: μ-opioid receptor (Homo sapiens (Human), UniProt P35372); experiment: μ-opioid receptor radioligand dose-displacement binding assay ([3H]-diprenorphine); conditions: binding affinity, [3H]-diprenorphine displacement; read-out: Ki (nM) Opioid Receptor μ
Listed here are compounds together with their documented log10 Ki.
Measured quantity: log10 Ki (log10 of the value in nM)

Smiles record: NC(=O)c1cc2c([nH]c1=O)C[C@]13CCN(CC4CC4)[C@H](Cc4ccc(O)cc41)[C@@H]3C2
Readout number: 0.66

Smiles record: C[C@H](NC(=O)c1cc2c([nH]c1=O)C[C@]13CCN(CC4CC4)[C@H](Cc4ccc(O)cc41)[C@@H]3C2)C(N)=O
Readout number: -0.25

Smiles record: COC(=O)c1cc2c([nH]c1=O)C[C@]13CCN(CC4CC4)[C@H](Cc4ccc(OC)cc41)[C@@H]3C2
Readout number: 2.65

Smiles record: COc1ccc2c(c1)[C@]13CCN(Cc4ccccc4)[C@H](C2)[C@]1(O)Cc1cc(C(N)=O)c(=O)[nH]c1C3
Readout number: 3.75

Smiles record: COC(=O)c1cc2c([nH]c1=O)C[C@]13CCN(Cc4ccccc4)[C@H](Cc4ccc(OC)cc41)[C@]3(O)C2
Readout number: 3.60

Smiles record: NC(=O)CNC(=O)c1cc2c([nH]c1=O)C[C@]13CCN(CC4CC4)[C@H](Cc4ccc(O)cc41)[C@@H]3C2
Readout number: -0.23

Smiles record: COc1ccc2c(c1)[C@]13CCN(C)[C@H](C2)[C@]1(O)Cc1cc(C(N)=O)c(=O)[nH]c1C3
Readout number: 4.16
